Assay: gradient 5% acetonitrile 3 min, to 50% in 2 min, to 85% in 15 min, held 3 min, 100 µL/min
Details: column: Zorbax Extend-C18 2.1 x 50 mm; eluents: water / acetonitrile, 0.1% formic acid
MEASUREMENT_LABEL: RP-LC retention time (s)

Here are 4 molecules together with their reported answers.
{"MOLECULE": "CCOC(=O)c1c(C)n(Cc2ccco2)c2ccc(OC)cc12", "RP-LC retention time / s": 1050}
{"MOLECULE": "CC(C)C(=O)N1N=C(c2ccc(NS(=O)(=O)c3ccccc3)cc2)CC1c1ccco1 (centres undefined)", "RP-LC retention time / s": 870}
{"MOLECULE": "O=C(CSc1nc(=O)n2cc(Cl)ccc2n1)Nc1ccc(OC(F)(F)F)cc1", "RP-LC retention time / s": 820}
{"MOLECULE": "CCN1CCN(C(=O)C2CCN(S(=O)(=O)c3ccc4c(c3)sc(=O)n4CC)CC2)CC1", "RP-LC retention time / s": 602}

A: COc1ccc(-c2nc3cnccn3c2Nc2ccc(C(=O)N3CCOCC3)cc2)cc1
B: COc1ccc(-n2ncc3c(=O)n(Cc4nc(-c5ccc(C(C)(C)C)cc5)no4)cnc32)cc1
Lab notebook, comparison: A versus B , higher RP-LC retention time goes to which? Kindly give the label for the entry you pick.
B
(B: 1270 s, A: 664 s)

A: CCc1ccc(Oc2cc(N3CCC(C(=O)NCc4ccc(OC)cc4)CC3)ncn2)cc1
B: COc1cccc(CN2CCn3c(nnc3[C@@H]3C[C@@H](O)CN3C)C2)c1
Please choose the item with the lower RP-LC retention time value from this pair: A and B Refer to your chosen entry by its label in the reply.
B
(B: 574 s, A: 988 s)
